Tested on: K4 kissing-loop RNA reporter
TEST_DESCRIPTION: apparent KD of K4 kissing-loop reporter; higher = weaker reporter binding
MEASUREMENT_PARAMETERS: Eterna round: R107; input ligand: FMN 200 uM
Reported apparent KD of K4 kissing-loop reporter values follow for various sequences

The following sequences have reported results that may help.
UUAGUCUAGAGAAGGAGCGAGUGAUGUUUGCUAAGCUAUAUAAUAAAAUAUAGCAAAUUUACUCAGGUAGGUCGCUCUAGACAUU [AK3 Exc Arginine B] = 0.153 µM
AAACGCUUGAAUAACAAGCGAAAUAAAAUUCGAGGACCGGUACGGCCGCCACUCGGGCUAACUGCGAGUGAUGUUCGAAAAUAAA [Mat - Mod of OpenEnded 3 - D17] = 0.156 µM
CACCAUGAAUUCUCUAGGAGUGAUGUUUUUCGAGGACCGGUACGGCCGCCACUCGGACGAGGACCGUGGGAGCGGCGAACCGACU [ddfgmullin] = 0.172 µM

Here's the next entry for you.
Prompt: Quick one: apparent KD of K4 kissing-loop reporter for UGUCAUUGGUCUGAUACCAGUUGAUAAACUGGAGUGAUGUUCCUCGACGAAUACGUCGACAACCCUUGGCAGCAGACCGAUGACU [TheoBS 14 #SwitchBubble 13 #StaticStem] ?
Completion: 0.683 µM

* * *

Test system: K4 kissing-loop RNA reporter
TEST_DESCRIPTION: apparent KD of K4 kissing-loop reporter; higher = weaker reporter binding
MEASUREMENT_PARAMETERS: Eterna round: R107; input ligand: none
Please use true whenever apparent KD of K4 kissing-loop reporter is not below 100 nM, and false whenever it is.

These recorded examples may help you get a feel for the data.
GGAUAGGACAUAGGAUAUGGUAGUGAUGUUACCAAACUGGUUAAACAUGUCAGAAAACUGGCAUGACCAGAAGGAUGUCCUAUCG [FmnBX 27 U11+A75] = false
UGCACCAGUGAUGUUGGUCGGCACCGAGAUACCAGCUGAUCUCUUAGCCCUUGGCAGCUCUUUAUUCGCGUUAUCAGUUUCUUCG [theeternabot_sameState_KL_Theo_A_16] = true
UGAUACCAGACGGCCGCCACUCCCGUAAGUCAAAGACUUACGAAGAGGGUUUUUCAGUGAUGUUGGAGGACCGGGUCUGGUAUCU [FiskerMod 17 - Jieux - Exclusion - Tryptophan B] = true
GCAUCCAUGGCAGGAUAUAGGUUCGUGGAGUGAUGUUCCAUAGCCCGAGUGAUGUUCGUUAUCCGCCUAGAAGGGCCGUGGAUGC [whbob_Ex_FMNB__2th214] = true

Prompt: Given CCGAAGAACCAGUGAUGUUGGUUGACUAGACAGGAUAUGAGCAACAUCAGAAGGGUCUGGCUUCGGGAGUGAGUCGCGCUGACUU [Reverigeed] , state whether its apparent KD of K4 kissing-loop reporter is at least 100 nM.
Completion: true

Prompt: # iterate: AUCAGUUCAGCUGAUACCAGUCAGGAGUGAUGUUCCUGCUCGCGUCAGCCGCGUCGACAAGACCCUUGGCAGCAGCUCUAAGUGU [theeternabot_exclusion_KL_Theo_B_40]
Completion: true

* * *

Tested on: K4 kissing-loop RNA reporter
TEST_DESCRIPTION: apparent KD of K4 kissing-loop reporter; higher = weaker reporter binding
MEASUREMENT_PARAMETERS: Eterna round: R107; input ligand: theophylline 20 uM
Reported apparent KD of K4 kissing-loop reporter values follow for various sequences
Numbers only here, please. The scale is nM.

UGACUGGACUGAAGGAGCGCGCGAGACAAAGUCUCGAACUGCUAGUGAUGUUAGCAAAUAACGCAGGUAGGUCGCAGUCUAGUCU [ArgBS 11 #SwitchBubble #StaticStem #DoubleMagnet] = 92.3
UGACUACAAAAGGAAUAAUCCUAGUGAUGUUAGGAUAUGCUGAUAAGCAGAAGGAACGGAGAUCGAAGGAUCUCAUAUGUAGUCU [whbob_Ex_FMNA__2th193] = 117

Prompt: Quick one: apparent KD of K4 kissing-loop reporter for CGCGCGCGUUUGAGAGGGUGCGCGCGAAGUGAGGAUAUUUAGGGAGAAAGAAGGCACUAUAAAAUAUAGUGAUGUUAUAUAAGGG [SSFMNA.G] ?
Completion: 187

Prompt: # iterate: GCCGUAGAUUGAAGGAGCGUUCUUCAGCAUACUUGCAGUGAUGUUGCAUUUUACAUGUAAGAACAGGUAGGUCGCAAUCUACGGC
Completion: 40

Prompt: # iterate: GUGUGUGAAAACACGCACUUAUAUCCUAGGCAGGAUAUGCGGAAACGCAGAAGGGCCACCGGCGAGAAAAUCCAGUGAUGUUGGA [Ex FMN A 6]
Completion: 192

Prompt: # iterate: GGGUUUGCCGGAAGGAGCGCACUAUGGAGUGAUGUUCCAUGACCGCACAGCUUGCGGUCAGUGCAGGUAGGUCGCCGGUAGCGUU [Maedzaus]
Completion: 271

* * *

System: MS2 coat protein
TEST_DESCRIPTION: apparent KD of MS2 coat protein; designed switch direction (-1 OFF switch, 1 ON switch): -1; higher = weaker reporter binding
MEASUREMENT_PARAMETERS: input ligand: none
Please use y whenever apparent KD of MS2 coat protein is not below 200 nM, and n whenever it is.

These recorded examples may help you get a feel for the data.
AAGGGUACUUUCAGAACGACAUGAGGAUCACCCAUGUAGACUGAGGAUAUCUGCUACUAAGGACGGGAGAAGGCAGUGUAAUGU [Ex NG3 #74] (Eterna round: R96, puzzle: Exclusion NG 3) = n
AAGUAGACGGUGAGGAUAUAGGUCGAAUGACCGAUUUAGAAGGUACAUGAGGAUCACCCAUGUGGGUAACGUCG [Brourd's EX4 #29] (Eterna round: R97, puzzle: Brourd's mod of Exclusion 4) = n
ACAUGUCAUUGAGGAUAUUGCAAACAUGAGGAUCACCCAUGUAAACGGAUGCUCUUACGUGGGUUCGAGAAGGCGAUGUACAUU [Ex NG2 #93] (Eterna round: R96, puzzle: Exclusion NG 2) = y
UUUUAACAAGCGAGGUCCUACAUGAGGAUCACCCAUGUAUGUCAUGGAUUCCAUGGUCUUUUUGCUCGUCUUGUGUG [jl TITIN mod 8] (Eterna round: R97, puzzle: Sensor, turn-off variant 1) = n

We next turn to a different sequence, shown below.
Prompt: Given AGAUGUAGAUACCGAUCCUACAUGAGGAUCACCCAUGUAGCUAGACGUGCACGCGUAGCUCGUCAGACUACCAGAAG [salish99_TOv1_r3_085] (Eterna round: R96, puzzle: Sensor v3, turn-off variant 1) , state whether its apparent KD of MS2 coat protein is at least 200 nM.
Completion: y

* * *

System: K4 kissing-loop RNA reporter;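 note: bound reporter read as fluorescence of individual clusters on recovered sequencing chips by microscopy, with normalized cluster intensities fitted with a binding model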
TEST_DESCRIPTION: apparent KD of K4 kissing-loop reporter; higher = weaker reporter binding
MEASUREMENT_PARAMETERS: Eterna round: R107; input ligand: tryptophan 2.4 mM
Reported apparent KD of K4 kissing-loop reporter values follow for various sequences
Mention the unit after the number when you answer.

Prompt: Quick one: apparent KD of K4 kissing-loop reporter for UGCAUGCUUAGAGUGAUGUUCUAAGAUGAUACCAGUGCUUUUUUGCACCCUUGGCAGCGUCUGAUUGCAUGCACGUCGAAAGACG ?
Completion: 0.289 µM

* * *

Test system: MS2 coat protein
TEST_DESCRIPTION: apparent KD of MS2 coat protein; designed switch direction (-1 OFF switch, 1 ON switch): 1; higher = weaker reporter binding
MEASUREMENT_PARAMETERS: Eterna round: R95; input ligand: FMN 200 uM
PROPERTY_LABEL: apparent KD of MS2 coat protein
Mention the unit after the number when you answer.

The following sequences have reported results that may help.
UGGUAACAUGAGGAUCACCCAUGUCAAAUGAAUCGAGGAUAUGGGAAUUAAUAAUAUAAACUAGAAGGCGAAUUUG [Altered State 1-6 - Jieux - Same State 1] (puzzle: Same State 1) = 85.6 nM
UCUUGGUUUUUGCUCGUUUUUUGUGUUGAACAUGAGGAUCACCCAUGUAUUGUACGGUCCAAUUUGAUAGUGGUCCG [JMF 28] (puzzle: Sensor for hsa-mir-208a) = 25.5 nM
UUAUAACAUGAGGAUCACCCAUGUCAACAAAGUCGAGGAUAUGGGCAUAGAGGAUAAGAACCAGAAGGCGAAUAUU [Mat - Same State 1 - Mod of UCT - D39] (puzzle: Same State 1) = 70.8 nM

Prompt: Quick one: apparent KD of MS2 coat protein for GGAGCCGGCACUGAGGAUAUUCAUAUUAAAACAUGAGGAUCACCCAUGUAGGCCAGAAGGCCUUGGGAGAAGGCAGGUCGGCUCG [salish99_ss2_r3_075] (puzzle: Same State 2) ?
Completion: 27.1 nM

Prompt: # iterate: GUAUCUACAGGUUGCGAUGCUCGUCUGAUACAUGAGGAUCACCCAUGUUAUAGCCCUGUGCUUGCGCAGGGCUGAUU [Sensor for hsa-mir-208a ( MOD of Tearor v.2 )] (puzzle: Sensor for hsa-mir-208a)
Completion: 136 nM
